The entries that follow carry pIC50 values tested on CK1ε (Homo sapiens (Human), UniProt P49674), drawn from several published reports.
Sequence (P49674 whole entry): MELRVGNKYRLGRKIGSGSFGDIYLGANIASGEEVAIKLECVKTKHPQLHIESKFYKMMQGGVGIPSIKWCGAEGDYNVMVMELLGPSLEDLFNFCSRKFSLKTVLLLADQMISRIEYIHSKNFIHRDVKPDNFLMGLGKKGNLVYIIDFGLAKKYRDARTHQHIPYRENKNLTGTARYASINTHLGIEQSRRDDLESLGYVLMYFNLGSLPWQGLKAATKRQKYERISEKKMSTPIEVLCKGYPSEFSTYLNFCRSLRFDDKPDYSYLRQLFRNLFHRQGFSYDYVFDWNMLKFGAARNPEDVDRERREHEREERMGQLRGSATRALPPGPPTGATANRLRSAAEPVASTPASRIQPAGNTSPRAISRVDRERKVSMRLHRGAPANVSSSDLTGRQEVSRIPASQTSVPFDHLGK
Answers are plain numbers, as −log10 of the molar value.

Examples with their reported pIC50 follow.
{"compound_smiles": "CC(C)(C)NC(=O)N1CCn2c(c(C(N)=O)c(-c3ccc(OCC#N)cc3)c2C2CC2)C1", "pIC50": 7.62}
{"compound_smiles": "CC(C)NC(=O)N1CCn2c(c(C(N)=O)c(-c3ccccc3)c2C2CC2)C1", "pIC50": 7.38}
{"compound_smiles": "Cn1nc(-c2ccc(F)cc2)c(-c2ccc3nc(NC(=O)c4ccnc(F)c4)cn3n2)c1N1CCN(C[C@@H](O)C(F)(F)F)CC1", "pIC50": 8.21}
{"compound_smiles": "Cn1nc(-c2ccc(F)cc2)c(-c2ccc3nc(NC(=O)c4cc(F)nc(F)c4)cn3n2)c1N1CCOCC1", "pIC50": 7.64}
{"compound_smiles": "Cc1nc(-c2ccc(F)cc2)c(-c2ccc3nc(NC(=O)c4ccnc(F)c4)cn3n2)n1C1CCN(C[C@@H](O)C(F)(F)F)CC1", "pIC50": 8.59}

Field: pIC50. Fill in for each record below.
1. O=C(Nc1cn2nc(-c3c(-c4ccc(F)cc4)nc4n3CCN(C(=O)CC(F)(F)F)C4)ccc2n1)c1ccnc(F)c1
2. O=C(Nc1cn2nc(-c3c(-c4ccc(F)cc4)nc4ccccn34)ccc2n1)C1CCN(c2ccncc2)CC1
3. NC(=O)c1c(-c2ccccc2)c(C2CC2)n2c1CN(C(=O)NCC1CCCCC1)CC2
4. N#Cc1ccc(C(=O)N2CCC(n3cnc(-c4ccc(F)cc4)c3-c3ccc4nc(NC(=O)c5ccnc(F)c5)cn4n3)CC2)cc1
5. O=C(Nc1cn2nc(-c3c(-c4ccc(F)cc4)ncn3C3CCN(C(=O)c4ccns4)CC3)ccc2n1)c1ccnc(F)c1
6. Cc1nc(-c2ccc(F)cc2)c(-c2ccc3nc(NC(=O)c4ncc[nH]4)cn3n2)n1C

1. 8.59
2. 7.91
3. 7.60
4. 8.84
5. 9.22
6. 6.75

Quick one: give me pIC50 for each item below, same order please.
1. O=C(Nc1cn2nc(-c3c(-c4ccc(F)cc4)ncn3C3CN(CCO)C3)ccc2n1)c1ccncc1
2. Cn1cc(-c2ccc3nc(NC(=O)c4ccnnc4)cn3n2)c(-c2ccc(F)cc2)n1

[8.25, 7.84]
